- measurement-target: T1, GLP-1R (INS1e assay) (UniProt P32301 22-463, limits assumed)
- T1 sequence (looked up): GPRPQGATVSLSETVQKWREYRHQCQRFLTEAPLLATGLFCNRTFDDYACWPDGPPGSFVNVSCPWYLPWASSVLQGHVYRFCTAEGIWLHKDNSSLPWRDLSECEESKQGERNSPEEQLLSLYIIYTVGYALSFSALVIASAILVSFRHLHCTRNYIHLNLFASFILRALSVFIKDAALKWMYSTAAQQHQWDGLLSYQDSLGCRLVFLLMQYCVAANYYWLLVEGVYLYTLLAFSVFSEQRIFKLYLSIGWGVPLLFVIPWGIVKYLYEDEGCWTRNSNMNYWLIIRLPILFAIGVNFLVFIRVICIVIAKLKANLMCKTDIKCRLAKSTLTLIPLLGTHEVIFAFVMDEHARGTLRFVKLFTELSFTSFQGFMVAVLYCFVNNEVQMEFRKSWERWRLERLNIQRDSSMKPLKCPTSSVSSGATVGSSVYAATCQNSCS
- assay-comment: cell-based or functional assay
Starred links: 1 amine or outer side, 2 acyl side, 3 side chain; linkers in the order of their positions; H or OH if unused. Non-standard residues stand in square brackets, D forms with d. Groups on a side chain read outwards from the residue. Primed or numbered codes have the meaning given here. No end group written: not given here. *: point of attachment. Dodecylbenzoate = dodecylbenzoyl lipid group; γGlu = O=C(O)[C@H](CCC(=O)[*:2])N[*:1]; Stearoyl = CCCCCCCCCCCCCCCCCC(=O)*; αMeF = C[C@](N)(Cc1ccccc1)C(=O)O; αMeK = C[C@](N)(CCCCN)C(=O)O; αMeS = C[C@](N)(CO)C(=O)O; PEG2′ = not defined here; Aib = CC(C)(N)C(=O)O
Kindly supply the reported INS1e assay EC50 GLP-1 R n1 values for the records listed here.
Give bare numbers, in nM.

[[record]]
binder = "H[Aib]EGS[αMeF]TSDV[αMeS]S[αMeF]LEGEAA[αMeK]E[αMeF]IA[αMeF]VVK([PEG2′-PEG2′-PEG2′-Dodecylbenzoate])GG-NH2 [SEQ ID NO 181]"
value_measured = 0.0453


Fill in INS1e assay EC50 GLP-1 R n1 for each of the 2 binders listed.
1. H[Aib]EGS[αMeF]TSDV[αMeS]SK([PEG2′-PEG2′-γGlu-Stearoyl])LEGEAA[αMeK]E[αMeF]IA[αMeF]VV[αMeK]GG-NH2 [SEQ ID NO 116]
2. H[Aib]EGS[αMeF]TSDV[αMeS]S[αMeF]LEGEAA[αMeK]E[αMeF]IK([PEG2′-PEG2′-γGlu-Stearoyl])[αMeF]VV[αMeK]GG-NH2 [SEQ ID NO 105]

1: 1.61; 2: 0.22
